# STUDY SYSTEM: panel of 255 wild-type kinases (Homo sapiens, UniProt Q9Y463)
# Sequence (Q9Y463 whole entry): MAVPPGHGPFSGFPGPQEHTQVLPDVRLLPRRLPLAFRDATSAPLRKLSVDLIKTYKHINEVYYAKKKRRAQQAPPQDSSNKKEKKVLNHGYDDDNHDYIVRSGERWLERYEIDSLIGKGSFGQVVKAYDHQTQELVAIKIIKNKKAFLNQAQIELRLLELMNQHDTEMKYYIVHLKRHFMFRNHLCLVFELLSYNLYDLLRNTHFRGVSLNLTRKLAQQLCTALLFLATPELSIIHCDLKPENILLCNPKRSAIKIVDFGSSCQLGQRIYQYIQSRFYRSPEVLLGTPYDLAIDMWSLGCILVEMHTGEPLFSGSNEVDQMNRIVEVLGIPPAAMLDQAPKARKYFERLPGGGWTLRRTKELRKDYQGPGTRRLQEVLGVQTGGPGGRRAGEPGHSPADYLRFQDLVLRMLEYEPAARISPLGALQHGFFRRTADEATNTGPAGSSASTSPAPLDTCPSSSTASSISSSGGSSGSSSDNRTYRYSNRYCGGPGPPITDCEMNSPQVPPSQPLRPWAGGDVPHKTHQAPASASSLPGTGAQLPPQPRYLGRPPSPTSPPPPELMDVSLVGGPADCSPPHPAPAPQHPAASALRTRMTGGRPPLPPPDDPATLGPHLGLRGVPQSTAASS
# PROCEDURE TEXT: Kinase panel profiling at 1 µmol/L (MSA or IMAP), percentage inhibition
# Format: biochemical
# RUN CONDITIONS: kinase DYRK1B; 1 µmol/L single concentration; read-out: %-inhibition at 1 µmol/L, DYRK1B
Assign inhibition at 1 µM to each entry below.
Give me the value, and tack the unit on after it.

For reference, reported inhibition at 1 µM for C=CC(=O)N1CCC([C@@H]2CCNc3c(C(N)=O)c(-c4ccc(Oc5ccccc5)cc4)nn32)CC1 [zanubrutinib] stands at 5.39%

Form field inhibition at 1 µM, entry CCN1C(=O)N(c2c(F)c(OC)cc(OC)c2F)Cc2cnc3[nH]c(CN4CCOCC4)cc3c21 [pemigatinib] : 6%

Reported inhibition at 1 µM of CCc1nc(C(N)=O)c(Nc2ccc(N3CCC(N4CCN(C)CC4)CC3)c(OC)c2)nc1NC1CCOCC1 [gilteritinib] : 34%

Short answer for CCn1c(=O)c(-c2cc(NC(=O)Nc3ccccc3)c(F)cc2Br)cc2cnc(NC)cc21 [ripretinib] : inhibition at 1 µM was -2.38%

Reported inhibition at 1 µM ( C[C@H]1Oc2cc(cnc2N)-c2c(nn(C)c2C#N)CN(C)C(=O)c2ccc(F)cc21 [lorlatinib] ) = -2.8%

For reference, reported inhibition at 1 µM for Cc1nc(NC(=O)N2CCC[C@H]2C(N)=O)sc1-c1ccnc(C(C)(C)C(F)(F)F)c1 [alpelisib] stands at 8%

Batch lookup, inhibition at 1 µM per entry.
1. CN1CCN(c2ccc(C(=O)Nc3n[nH]c4ccc(Cc5cc(F)cc(F)c5)cc34)c(NC3CCOCC3)c2)CC1 [entrectinib]
2. CO[C@]1(C(=O)N[C@@H](C)c2ccc(-n3cc(F)cn3)nc2)CC[C@H](c2nc(C)cc(Nc3cc(C)[nH]n3)n2)CC1 [pralsetinib]
3. Cn1cc(-c2cc3c(N4CCN(c5ncc([C@@](C)(N)c6ccc(F)cc6)cn5)CC4)ncnn3c2)cn1 [avapritinib]
4. CCN1CCN(c2ccc(Nc3cc(N(C)C(=O)Nc4c(Cl)c(OC)cc(OC)c4Cl)ncn3)cc2)CC1 [infigratinib]
5. O=C(Nc1cnn2ccc(N3CCC[C@@H]3c3cc(F)ccc3F)nc12)N1CC[C@H](O)C1 [larotrectinib]
6. Cn1cnc2c(F)c(Nc3ccc(Br)cc3F)c(C(=O)NOCCO)cc21 [binimetinib]
7. Cn1cnc2c(F)c(Nc3ccc(Br)cc3Cl)c(C(=O)NOCCO)cc21 [selumetinib]
8. C[C@H](Nc1ncnc2nc[nH]c12)c1cc2cccc(Cl)c2c(=O)n1-c1ccccc1 [duvelisib]

Response:
6%
-12%
47%
-2.3%
6%
-7%
-3.17%
-0.692%

So for COC(=O)N[C@@H](C)CNc1nccc(-c2cn(C(C)C)nc2-c2cc(Cl)cc(NS(C)(=O)=O)c2F)n1 [encorafenib] , the logged inhibition at 1 µM turned out to be -3.42%

* * *

# STUDY SYSTEM: panel of 255 wild-type kinases (Homo sapiens)
# PROCEDURE TEXT: Kinase panel profiling at 1 µmol/L (MSA or IMAP), percentage inhibition
# Type: biochemical
# RUN CONDITIONS: kinase SRPK2; 1 µmol/L single concentration; read-out: %-inhibition at 1 µmol/L, SRPK2
QUANTITY: inhibition at 1 µM (%)
Numbers only, in %.

Tested system panel of 255 wild-type kinases (Homo sapiens); inhibition at 1 µM recorded for `Cc1cc(Nc2ncnc3ccc(NC4=NC(C)(C)CO4)cc23)ccc1Oc1ccn2ncnc2c1` was -0.581

The measured inhibition at 1 µM that `FC(F)(F)c1ccc(CNc2ccc(Cc3c[nH]c4ncc(Cl)cc34)cn2)cn1` showed for panel of 255 wild-type kinases (Homo sapiens) is -1.19

The observed inhibition at 1 µM for `Cn1cnc2c(F)c(Nc3ccc(Br)cc3F)c(C(=O)NOCCO)cc21` when tested with panel of 255 wild-type kinases (Homo sapiens) stands at -1.4

// returns inhibition at 1 µM for `COc1ccc(CN2C3CC2CN(c2ccc(-c4cc(OCC(C)(C)O)cn5ncc(C#N)c45)cn2)C3)cn1` with panel of 255 wild-type kinases (Homo sapiens); value = -0.197

// assay panel of 255 wild-type kinases (Homo sapiens), entry `CN1CCN(c2ccc(C(=O)Nc3n[nH]c4ccc(Cc5cc(F)cc(F)c5)cc34)c(NC3CCOCC3)c2)CC1` , inhibition at 1 µM value = 21

Log: panel of 255 wild-type kinases (Homo sapiens), compound `COC(=O)N[C@@H](C)CNc1nccc(-c2cn(C(C)C)nc2-c2cc(Cl)cc(NS(C)(=O)=O)c2F)n1` , inhibition at 1 µM = 2

Case `COc1cc2ncnc(Nc3ccc(F)c(Cl)c3)c2cc1NC(=O)/C=C/CN1CCCCC1` , panel of 255 wild-type kinases (Homo sapiens), inhibition at 1 µM recorded as 0.863

Tested system panel of 255 wild-type kinases (Homo sapiens); inhibition at 1 µM recorded for `C[C@H](Nc1ncnc2nc[nH]c12)c1cc2cccc(Cl)c2c(=O)n1-c1ccccc1` was -0.863

Working through the 3 compounds below one at a time, give inhibition at 1 µM for each.
1. CCn1c(=O)c(-c2cc(NC(=O)Nc3ccccc3)c(F)cc2Br)cc2cnc(NC)cc21
2. CO[C@]1(C(=O)N[C@@H](C)c2ccc(-n3cc(F)cn3)nc2)CC[C@H](c2nc(C)cc(Nc3cc(C)[nH]n3)n2)CC1
3. CCN1C(=O)N(c2c(F)c(OC)cc(OC)c2F)Cc2cnc3[nH]c(CN4CCOCC4)cc3c21

Response:
[-2.82, -2.72, -6]

Each of the following entries comes with a recorded value; kindly state inhibition at 1 µM for each.
1. CCc1nc(C(N)=O)c(Nc2ccc(N3CCC(N4CCN(C)CC4)CC3)c(OC)c2)nc1NC1CCOCC1
2. C=CC(=O)N1CCC([C@@H]2CCNc3c(C(N)=O)c(-c4ccc(Oc5ccccc5)cc4)nn32)CC1
3. O=C(Nc1cnn2ccc(N3CCC[C@@H]3c3cc(F)ccc3F)nc12)N1CC[C@H](O)C1
4. C[C@H]1Oc2cc(cnc2N)-c2c(nn(C)c2C#N)CN(C)C(=O)c2ccc(F)cc21

Response:
1: 12; 2: -2.35; 3: -3; 4: 4

* * *

For each of the molecules below, state its inhibition at 1 µM.
# STUDY SYSTEM: panel of 255 wild-type kinases (Homo sapiens, UniProt Q9H4A3)
# Sequence (Q9H4A3 whole entry): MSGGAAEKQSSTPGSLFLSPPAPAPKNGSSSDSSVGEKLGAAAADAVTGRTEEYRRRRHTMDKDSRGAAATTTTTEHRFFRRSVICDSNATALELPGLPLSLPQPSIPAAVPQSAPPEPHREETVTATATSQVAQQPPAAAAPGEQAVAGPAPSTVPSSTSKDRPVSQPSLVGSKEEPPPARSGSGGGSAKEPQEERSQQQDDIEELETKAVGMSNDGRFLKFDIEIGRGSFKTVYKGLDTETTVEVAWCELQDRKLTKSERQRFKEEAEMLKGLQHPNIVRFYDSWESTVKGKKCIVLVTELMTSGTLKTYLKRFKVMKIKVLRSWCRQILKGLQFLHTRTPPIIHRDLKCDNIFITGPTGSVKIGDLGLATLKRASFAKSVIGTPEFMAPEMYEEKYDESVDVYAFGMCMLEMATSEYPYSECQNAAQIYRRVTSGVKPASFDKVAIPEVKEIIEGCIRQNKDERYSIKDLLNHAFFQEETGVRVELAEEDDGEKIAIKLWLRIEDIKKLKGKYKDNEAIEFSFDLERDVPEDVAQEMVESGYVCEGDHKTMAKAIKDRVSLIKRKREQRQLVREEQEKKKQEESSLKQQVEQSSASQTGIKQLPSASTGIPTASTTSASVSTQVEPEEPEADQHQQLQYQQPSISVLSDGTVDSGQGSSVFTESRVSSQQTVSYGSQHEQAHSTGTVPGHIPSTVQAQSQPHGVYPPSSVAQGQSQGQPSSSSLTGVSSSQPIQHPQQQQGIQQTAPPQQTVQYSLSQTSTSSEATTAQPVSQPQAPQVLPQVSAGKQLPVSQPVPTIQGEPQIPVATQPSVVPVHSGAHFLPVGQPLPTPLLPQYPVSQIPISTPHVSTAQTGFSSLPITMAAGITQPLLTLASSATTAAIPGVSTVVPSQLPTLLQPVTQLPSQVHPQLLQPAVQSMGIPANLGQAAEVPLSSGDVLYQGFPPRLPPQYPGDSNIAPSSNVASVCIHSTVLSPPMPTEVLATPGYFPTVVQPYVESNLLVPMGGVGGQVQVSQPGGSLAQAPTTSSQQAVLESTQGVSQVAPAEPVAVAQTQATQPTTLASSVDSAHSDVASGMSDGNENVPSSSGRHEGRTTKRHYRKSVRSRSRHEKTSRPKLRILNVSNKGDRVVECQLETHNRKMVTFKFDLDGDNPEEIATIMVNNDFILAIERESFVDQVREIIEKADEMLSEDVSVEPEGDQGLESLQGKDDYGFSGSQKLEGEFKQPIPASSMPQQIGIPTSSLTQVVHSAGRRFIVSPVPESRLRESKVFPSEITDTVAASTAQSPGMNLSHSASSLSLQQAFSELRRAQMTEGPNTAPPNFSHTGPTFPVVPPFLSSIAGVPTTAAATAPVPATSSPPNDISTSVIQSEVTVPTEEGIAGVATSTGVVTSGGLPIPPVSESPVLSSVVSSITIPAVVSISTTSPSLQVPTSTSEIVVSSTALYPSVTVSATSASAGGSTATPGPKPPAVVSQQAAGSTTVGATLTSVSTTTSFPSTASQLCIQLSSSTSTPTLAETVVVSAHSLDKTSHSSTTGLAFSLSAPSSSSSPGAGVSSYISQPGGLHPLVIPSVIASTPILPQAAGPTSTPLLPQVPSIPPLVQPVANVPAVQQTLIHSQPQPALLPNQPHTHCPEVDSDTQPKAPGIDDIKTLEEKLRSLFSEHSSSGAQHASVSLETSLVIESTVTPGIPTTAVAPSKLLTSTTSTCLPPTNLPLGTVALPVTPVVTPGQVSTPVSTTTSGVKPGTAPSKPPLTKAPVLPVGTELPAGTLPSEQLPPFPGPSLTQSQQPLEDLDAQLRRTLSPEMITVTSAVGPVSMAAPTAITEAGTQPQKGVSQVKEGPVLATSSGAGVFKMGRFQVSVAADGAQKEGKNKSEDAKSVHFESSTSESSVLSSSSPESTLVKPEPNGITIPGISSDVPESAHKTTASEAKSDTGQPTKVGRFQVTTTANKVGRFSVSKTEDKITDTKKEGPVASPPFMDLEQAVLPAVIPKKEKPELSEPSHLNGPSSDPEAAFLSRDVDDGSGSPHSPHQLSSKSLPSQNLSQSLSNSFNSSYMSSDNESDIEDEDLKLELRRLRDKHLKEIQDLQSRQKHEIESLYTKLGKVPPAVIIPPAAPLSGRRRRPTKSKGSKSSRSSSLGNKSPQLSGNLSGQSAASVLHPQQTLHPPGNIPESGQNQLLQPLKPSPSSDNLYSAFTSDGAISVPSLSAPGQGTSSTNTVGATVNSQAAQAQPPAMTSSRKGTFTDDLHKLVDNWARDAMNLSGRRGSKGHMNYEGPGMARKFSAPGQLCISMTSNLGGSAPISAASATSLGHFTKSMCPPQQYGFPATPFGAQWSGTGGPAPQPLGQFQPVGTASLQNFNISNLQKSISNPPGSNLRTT
# PROCEDURE TEXT: Kinase panel profiling at 1 µmol/L (MSA or IMAP), percentage inhibition
# Assay type: biochemical
# RUN CONDITIONS: kinase WNK1; 1 µmol/L single concentration; read-out: %-inhibition at 1 µmol/L, WNK1
Report field: quantity (unit follows the number).

Quick note, inhibition at 1 µM for `Cn1cnc2c(F)c(Nc3ccc(Br)cc3F)c(C(=O)NOCCO)cc21` landed at -3.5%

Batch: inhibition at 1 µM for all items listed.
1. O=C(Nc1cnn2ccc(N3CCC[C@@H]3c3cc(F)ccc3F)nc12)N1CC[C@H](O)C1
2. C[C@H]1Oc2cc(cnc2N)-c2c(nn(C)c2C#N)CN(C)C(=O)c2ccc(F)cc21
3. CCN1CCN(c2ccc(Nc3cc(N(C)C(=O)Nc4c(Cl)c(OC)cc(OC)c4Cl)ncn3)cc2)CC1

Response:
-4.49%
0.826%
-4.6%

* * *

# Tested on: 134 cancer cell lines
# PROCEDURE TEXT: Cell viability assay (ATPlite, 72 hours), IC50 on cancer cell line panel
# RUN CONDITIONS: read-out: IC50 in cell proliferation assay, cell line ES-2 (BRAF p.V600E)
QUANTITY: log10(IC50) (log10 of the value in nM)
Scale: log10; quantity: IC50; unit before log: nM

Known value: 134 cancer cell lines log10(IC50) of the compound COc1cc2ncnc(Nc3ccc(F)c(Cl)c3)c2cc1NC(=O)/C=C/CN1CCCCC1 [dacomitinib] equals 3.48

// compound CC(C)(C)c1nc(-c2cccc(NS(=O)(=O)c3c(F)cccc3F)c2F)c(-c2ccnc(N)n2)s1 [dabrafenib] , assay 134 cancer cell lines, log10(IC50) value: 2.11

Lab entry: 134 cancer cell lines assay, compound Cn1cnc2c(F)c(Nc3ccc(Br)cc3Cl)c(C(=O)NOCCO)cc21 [selumetinib] , log10(IC50) = 2.38

Entry CCc1nc(C(N)=O)c(Nc2ccc(N3CCC(N4CCN(C)CC4)CC3)c(OC)c2)nc1NC1CCOCC1 [gilteritinib] : log10(IC50) on 134 cancer cell lines = 2.85

We now examine a further compound.
Entry Cc1cc(Nc2ncc(Cl)c(Nc3ccccc3S(=O)(=O)C(C)C)n2)c(OC(C)C)cc1C1CCNCC1 [ceritinib] under 134 cancer cell lines had log10(IC50) of 3.45

* * *

# STUDY SYSTEM: panel of 255 wild-type kinases (Homo sapiens, UniProt P06493)
# Sequence (P06493 whole entry): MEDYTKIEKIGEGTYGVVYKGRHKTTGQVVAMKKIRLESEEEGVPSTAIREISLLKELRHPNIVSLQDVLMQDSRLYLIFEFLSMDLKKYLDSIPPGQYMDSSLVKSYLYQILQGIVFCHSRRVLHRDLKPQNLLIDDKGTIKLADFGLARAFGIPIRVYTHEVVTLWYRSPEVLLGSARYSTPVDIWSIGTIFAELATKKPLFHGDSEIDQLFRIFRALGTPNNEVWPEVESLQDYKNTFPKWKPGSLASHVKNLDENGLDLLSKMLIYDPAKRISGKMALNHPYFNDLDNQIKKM
# PROCEDURE TEXT: Kinase panel profiling at 1 µmol/L (MSA or IMAP), percentage inhibition
# Format: biochemical
# RUN CONDITIONS: CDC2/CycB1 kinase assay; 1 µmol/L single concentration; read-out: %-inhibition CDC2/CycB1
QUANTITY: inhibition at 1 µM (%)
One number for each entry, in %.

Here are 6 compounds together with their reported answers.
Sure, the documented inhibition at 1 µM for `CCN1CCN(c2ccc(Nc3cc(N(C)C(=O)Nc4c(Cl)c(OC)cc(OC)c4Cl)ncn3)cc2)CC1` is -9

Value of measured inhibition at 1 µM for the entry `CCn1c(=O)c(-c2cc(NC(=O)Nc3ccccc3)c(F)cc2Br)cc2cnc(NC)cc21` : -5.56

Sample `Cc1cc(Nc2ncnc3ccc(NC4=NC(C)(C)CO4)cc23)ccc1Oc1ccn2ncnc2c1` ; inhibition at 1 µM observed: -7

Memo: `COc1cc2ncnc(Nc3ccc(F)c(Cl)c3)c2cc1NC(=O)/C=C/CN1CCCCC1` , reported inhibition at 1 µM: -6

Item: `Cc1nc(NC(=O)N2CCC[C@H]2C(N)=O)sc1-c1ccnc(C(C)(C)C(F)(F)F)c1` | inhibition at 1 µM: -3.48

compound `CO[C@]1(C(=O)N[C@@H](C)c2ccc(-n3cc(F)cn3)nc2)CC[C@H](c2nc(C)cc(Nc3cc(C)[nH]n3)n2)CC1` , inhibition at 1 µM observed: 15

Below is a list of compounds. For each, state its recorded inhibition at 1 µM.
1. C[C@H]1Oc2cc(cnc2N)-c2c(nn(C)c2C#N)CN(C)C(=O)c2ccc(F)cc21
2. C[C@H](Nc1ncnc2nc[nH]c12)c1cc2cccc(Cl)c2c(=O)n1-c1ccccc1

Response:
1. 3.16
2. -0.937
